molecular target: HPK1 (Homo sapiens, UniProt Q92918); construct: A HiBiT tag was introduced by CRISPR on the N terminus of HPK1 in Jurkat cells; host or cells: Jurkat cells (ATCC TIB-152), monoclonal line with CRISPR knock-in of HiBiT at the endogenous HPK1 locus; test: HPK1 Cellular HiBit Degradation Assay; format: cell-based; settings: HiBiT HPK1 Jurkat cells, 24 hrs; concentration at which 50% of HPK1 was remaining; read-out: DC50 Category
Sequence (Q92918 whole entry): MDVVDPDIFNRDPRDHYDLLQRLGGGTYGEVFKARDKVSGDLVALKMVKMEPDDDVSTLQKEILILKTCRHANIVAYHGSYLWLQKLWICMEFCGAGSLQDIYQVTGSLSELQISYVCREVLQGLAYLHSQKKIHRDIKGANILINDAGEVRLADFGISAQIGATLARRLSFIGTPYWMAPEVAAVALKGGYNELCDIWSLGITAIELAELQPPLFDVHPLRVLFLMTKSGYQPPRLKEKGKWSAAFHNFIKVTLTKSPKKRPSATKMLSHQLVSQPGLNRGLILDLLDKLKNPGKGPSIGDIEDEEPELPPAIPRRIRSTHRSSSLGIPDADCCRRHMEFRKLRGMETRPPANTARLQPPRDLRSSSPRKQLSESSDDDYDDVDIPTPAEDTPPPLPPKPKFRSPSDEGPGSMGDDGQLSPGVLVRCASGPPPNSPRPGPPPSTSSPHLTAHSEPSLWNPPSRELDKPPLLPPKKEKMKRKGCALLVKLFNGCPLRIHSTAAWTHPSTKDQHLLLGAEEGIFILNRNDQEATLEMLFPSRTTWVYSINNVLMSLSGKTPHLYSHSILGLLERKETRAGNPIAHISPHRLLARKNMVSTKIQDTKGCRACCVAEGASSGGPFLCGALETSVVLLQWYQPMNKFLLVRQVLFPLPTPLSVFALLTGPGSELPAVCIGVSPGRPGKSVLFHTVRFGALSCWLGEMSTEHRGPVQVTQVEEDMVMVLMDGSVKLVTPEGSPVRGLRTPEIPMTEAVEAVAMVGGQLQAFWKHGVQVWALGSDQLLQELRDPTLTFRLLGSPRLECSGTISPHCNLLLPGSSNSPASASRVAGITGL
OBSERVABLE: DC50

// sample CC(C)n1cnc2cc(-c3ccc4c(c3)N([C@H]3C[C@@H](N5CCCCC5)C3)C(=O)C43CCN(C(=O)C4CN(C(=O)C5CCN(c6ccc(C7CCC(=O)NC7=O)cn6)CC5)CCC4(F)F)CC3)nc(NC3CC3)c21 (mixture of isomers) , its DC50 was 100 to 500 nM

// DC50 value for CC(C)n1cnc2cc(-c3ccc4c(c3)N([C@H]3C[C@@H](N5CCCCC5)C3)C(=O)C43CCN(C(=O)[C@@H]4CCN(C(=O)[C@H]5CC[C@H](N(C)c6cccc7c6C(=O)N(C6CCC(=O)NC6=O)C7=O)CC5)C4)CC3)nc(NC3CC3)c21 (mixture of isomers) : 100 to 500 nM

// DC50 value for CC(C)n1cnc2cc(-c3ccc4c(c3)N([C@H]3C[C@@H](N5CCCCC5)C3)C(=O)C43CCN(C(=O)C4(C)CCN(C(=O)C5CCN(c6ccc(C7CCC(=O)NC7=O)nn6)CC5)CC4)CC3)nc(NC3CC3)c21 (mixture of isomers) : < 100 nM

Note to self: DC50 recorded for CC(C)n1cnc2cc(-c3ccc4c(c3)N([C@H]3C[C@@H](N5CCCCC5)C3)C(=O)C43CCN(C(=O)C45CCC(C)(C4)N(C(=O)C4CCN(c6ccc(C7CCC(=O)NC7=O)cn6)CC4)C5)CC3)nc(NC3CC3)c21 (mixture of isomers) was < 100 nM

// recorded DC50 for CC(C)n1cnc2cc(-c3ccc4c(c3)N([C@H]3C[C@@H](N5CCCCC5)C3)C(=O)C43CCN(C(=O)[C@]4(C)CCN(C(=O)C5CCN(c6ccc(C7CCC(=O)NC7=O)c(F)c6)CC5)C4)CC3)nc(NC3CC3)c21 (mixture of isomers) : 100 to 500 nM

Consider CC(C)n1cnc2cc(-c3ccc4c(c3)N([C@H]3C[C@@H](N5CCCCC5)C3)C(=O)C43CCN(C(=O)C4CCN(C(=O)[C@H]5CC[C@H](N(C)c6ccc(C7CCC(=O)NC7=O)cn6)CC5)CC4)CC3)nc(NC3CC3)c21 (mixture of isomers) . Its measured DC50 is < 100 nM

Looking up CCC1(C(=O)N2CCC3(CC2)C(=O)N([C@H]2C[C@@H](N4CCCCC4)C2)c2cc(-c4cc5ncn(C(C)C)c5c(NC5CC5)n4)ccc23)CCN(C(=O)C2CCN(c3ccc(C4CCC(=O)NC4=O)cn3)CC2)CC1 (mixture of isomers) , I found its DC50 recorded as < 100 nM

Looking up CC(C)n1cnc2cc(-c3ccc4c(c3)N([C@H]3C[C@@H](N5CCCCC5)C3)C(=O)C43CCN(C(=O)[C@H]4CC[C@H](C(=O)N5CCC(Nc6ccc(C7CCC(=O)NC7=O)cn6)CC5)CC4)CC3)nc(Nc3ccccc3F)c21 (stereo partly shown) , I found its DC50 recorded as < 100 nM

Record CC(C)n1cnc2cc(-c3ccc4c(c3)N([C@H]3C[C@@H](N5CCCCC5)C3)C(=O)C43CCN(C(=O)CC4CCN(C(=O)C5CCN(c6ccc(C7CCC(=O)NC7=O)cn6)CC5)CC4)CC3)nc(NC3CC3)c21 (mixture of isomers) , field DC50: < 100 nM

Entry CC(C)n1cnc2cc(-c3ccc4c(c3)N([C@H]3C[C@@H](N5CCCCC5)C3)C(=O)C43CCN(C(=O)c4ccc(C(=O)N5CCN(c6ccc7c(c6)C(=O)N(C6CCC(=O)NC6=O)C7=O)CC5)cc4)CC3)nc(Nc3ccncc3F)c21 (mixture of isomers) ; DC50 = 500 to 1000 nM

Summary for this compound, CC(C)n1cnc2cc(-c3ccc4c(c3)N([C@H]3C[C@@H](N5CCCCC5)C3)C(=O)C43CCN(C(=O)C4CCN(C(=O)[C@H]5CC[C@H](Oc6ccc(C7CCC(=O)NC7=O)cc6)CC5)CC4)CC3)nc(Nc3ccncc3F)c21 (mixture of isomers) : DC50 is < 100 nM

// field: DC50; key: CC(C)n1cnc2cc(-c3ccc4c(c3)N([C@H]3C[C@@H](N5CCCCC5)C3)C(=O)C43CCN(C(=O)[C@H]4CC[C@@H](C(=O)N5CCC(N(C)c6ccc(C7CCC(=O)NC7=O)cc6)CC5)CC4)CC3)nc(NC3CC3)c21 (mixture of isomers) ; value = 100 to 500 nM

// field: DC50; key: CC(C)n1cnc2cc(-c3ccc4c(c3)N([C@H]3C[C@@H](N5CCCCC5)C3)C(=O)C43CCN(C(=O)C4CCN(C(=O)[C@@H]5CCN(c6ccc(C7CCC(=O)NC7=O)cn6)C5)CC4)CC3)nc(Nc3ccccc3F)c21 (mixture of isomers) ; value = 100 to 500 nM

According to the records, this compound CC(C)n1cnc2cc(-c3ccc4c(c3)N([C@H]3C[C@@H](N5CCCCC5)C3)C(=O)C43CCN(C(=O)[C@H]4C[C@@H](C)CN(C(=O)C5CCN(c6ccc(C7CCC(=O)NC7=O)cn6)CC5)C4)CC3)nc(NC3CC3)c21 (mixture of isomers) displays DC50 of 100 to 500 nM

Measured DC50, CC(C)n1cnc2cc(-c3ccc4c(c3)N([C@H]3C[C@@H](N5CCCCC5)C3)C(=O)C43CCN(C(=O)C4(CF)CCN(C(=O)C5CCN(c6ccc(C7CCC(=O)NC7=O)cn6)CC5)CC4)CC3)nc(NC3CC3)c21 (mixture of isomers) : < 100 nM

The recorded DC50 for entry CC(C)n1cnc2cc(-c3ccc4c(c3)N([C@H]3C[C@@H](N5CCCCC5)C3)C(=O)C43CCN(C(=O)C4(C)CCN(C(=O)[C@H]5CC[C@H](Oc6ccc(C7CCC(=O)NC7=O)cc6)CC5)CC4)CC3)nc(Nc3ccncc3F)c21 (mixture of isomers) equals < 100 nM
